Reference source: patent US6001988

experimental_target: T1, L-selectin (LS-Rg) (Homo sapiens, UniProt P14151 P14151:39-332)
T1 chain: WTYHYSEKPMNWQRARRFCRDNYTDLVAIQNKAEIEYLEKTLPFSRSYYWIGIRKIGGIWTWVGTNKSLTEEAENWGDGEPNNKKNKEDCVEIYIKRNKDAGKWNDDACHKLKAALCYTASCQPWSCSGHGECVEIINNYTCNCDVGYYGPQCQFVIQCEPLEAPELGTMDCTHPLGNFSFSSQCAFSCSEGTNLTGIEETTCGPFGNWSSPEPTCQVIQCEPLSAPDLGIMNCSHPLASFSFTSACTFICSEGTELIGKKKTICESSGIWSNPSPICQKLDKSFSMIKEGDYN
test_description: filter; room temp; 6.0 nM at 37 C
experimental_parameters: tags: human IgG2 Fc fusion (provided by A. Varki); label: 32P
property_measured: pKd
# pKd = -log10(concentration in molar units)

Return the recorded pKd value; entry: 206 (ssDNA) DNA: CTACCTACGATCTGACTAGCAGCGTTGTACGGGGTTACACACAACGATTTAGATGCTCTGCTTACTCTCATGTAGTTCC
9.48
